Source of measurements: patent US20100197757A1

Tested on: MEK
Assay: IC50 column of the compound table in Example 1 (assay not given)
Criterion: IC50 strictly less than 3 µM. Met: MET. Not met: NOT MET.

[ask] Say whether its IC50 is strictly beneath 3 µM. Entry: "N/C(=C1\C(=O)Nc2ccc(Cl)cc21)c1ccc(I)cc1"
[reply] MET

[ask] Say whether its IC50 is strictly beneath 3 µM. Entry: "N/C(=C1\C(=O)Nc2ccc(Br)cc21)c1cccc(I)c1"
[reply] NOT MET

[ask] Say whether its IC50 is strictly beneath 3 µM. Entry: "N/C(=C1\C(=O)Nc2cc(Cl)ccc21)c1ccc(I)cc1"
[reply] NOT MET

[ask] Say whether its IC50 is strictly beneath 3 µM. Entry: "N/C(=C1\C(=O)Nc2ccccc21)c1ccc(I)cc1"
[reply] MET

[ask] Say whether its IC50 is strictly beneath 3 µM. Entry: "N/C(=C1\C(=O)Nc2ccc(Cl)cc21)c1ccccc1"
[reply] MET

[ask] Say whether its IC50 is strictly beneath 3 µM. Entry: "COc1ccc(/C(N)=C2/C(=O)Nc3ccccc32)cc1"
[reply] NOT MET

[ask] Say whether its IC50 is strictly beneath 3 µM. Entry: "N/C(=C1\C(=O)Nc2ccccc21)c1ccc(O)cc1"
[reply] MET

[ask] Say whether its IC50 is strictly beneath 3 µM. Entry: "N/C(=C1\C(=O)Nc2cc(Cl)ccc21)c1ccccc1"
[reply] MET

[ask] Say whether its IC50 is strictly beneath 3 µM. Entry: "COc1ccc(/C(N)=C2/C(=O)Nc3cc(Cl)ccc32)cc1"
[reply] NOT MET
